# procedureDetails: KARI assay of purified S. exigua KARI and variants with NADPH (Examples 6-9)
# Format: biochemical
reportedMetric: kcat NADPH (s⁻¹)
Please respond with the number in s⁻¹ and leave the unit unwritten.

1) Se1_KARI^HF2-his6: S. exigua KARI variant S61C (protein, UniProt D0WGK0 1-342, looked up, variant S61C, His6 tag, S. exigua KARI variant S61C) Ketol-acid reductoisomerase …: MSVKTKEKEMAVTILYEQDVDPKVIQGLKVGIIGYGSQGHAHALNLMDSGVDVRVGLREGCSSWKTAEEAGLKVTDMDTAAEEADVIMVLVPDEIQPKVYQEHIAAHLKAGNTLAFAHGFNIHYGYIVPPEDVNVIMCAPKGPGHIVRRQFTEGSGVPDLACVQQDATGNAWDIVLSYCWGVGGARSGIIKATFAEETEEDLFGEQAVLCGGLVELVKAGFETLTEAGYPPELAYFECYHEMKMIVDLMYESGIHFMNYSISNTAEYGEYYAGPKVINEQSREAMKEILKRIQDGSFAQEFVDDCNNGHKRLLEQREAINTHPIETTGAQIRSMFSWIKKED    0.57

Could you now consider this next molecule?
Incoming: kcat NADPH for Se1_KARI^1H1: S. exigua KARI variant R58P, S61C (protein, UniProt D0WGK0 1-342, looked up, variant R58P S61C) Ketol-acid reductoisomerase …: MSVKTKEKEMAVTILYEQDVDPKVIQGLKVGIIGYGSQGHAHALNLMDSGVDVRVGLPEGCSSWKTAEEAGLKVTDMDTAAEEADVIMVLVPDEIQPKVYQEHIAAHLKAGNTLAFAHGFNIHYGYIVPPEDVNVIMCAPKGPGHIVRRQFTEGSGVPDLACVQQDATGNAWDIVLSYCWGVGGARSGIIKATFAEETEEDLFGEQAVLCGGLVELVKAGFETLTEAGYPPELAYFECYHEMKMIVDLMYESGIHFMNYSISNTAEYGEYYAGPKVINEQSREAMKEILKRIQDGSFAQEFVDDCNNGHKRLLEQREAINTHPIETTGAQIRSMFSWIKKED ?
Outgoing: 0.65
